Experiment: chemical genetic growth profiling, strain panel (AID 1159580);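 note: tested at 20 µM; growth read once vehicle control cultures reached saturation at 30 °C; 1 = growth at the plate median or of vehicle wells; lower values mean less growth of the strain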
Details: S. cerevisiae deletion strains, growth OD, locus YAL030W, strain snc1, active compounds read low
The campaign covered roughly 5,500 compounds. About 2,000 (36%) were called active. Another 18% or so got no clear call; they are omitted. The list shows a part of the results. Where a SMILES comes first, the peptide text is derived from it.
Would you kindly list normalized growth for each of these compounds?
Answer using only a numeral; do not append any unit.

Which measured normalized growth value corresponds to CC(=O)O[C@@H]1CC2C(C)(C)[C@@H](O)CC[C@]2(C)C2CC[C@@]3(C)[C@H](c4ccoc4)OC(=O)[C@H]4O[C@]43[C@@]21C (some centres undefined) ?
0.996

Which measured normalized growth value corresponds to COC1C=CC23c4cc5c(cc4CN(CC2O)[C@@H]3C1)OCO5 (some centres undefined) ?
0.989

Which measured normalized growth value corresponds to O=c1cccc2n1CC1CC2CN2CCCC[C@@H]12 (some centres undefined) ?
0.979

Which measured normalized growth value corresponds to `Cc1oncc1C(=O)Nc1ccc(C(F)(F)F)cc1` ?
0.979

Which measured normalized growth value corresponds to CC(=O)O[C@H]1C[C@@H](OC(C)=O)C(C)(C)C2C[C@@H](O)[C@]3(C)C(CC[C@@]4(C)[C@H](c5ccoc5)OC(=O)[C@H]5O[C@]543)[C@]21C (some centres undefined) ?
0.995

Which measured normalized growth value corresponds to CC(=O)O[C@H]1CC[C@@]2(C)C(C[C@@H](OC(C)=O)[C@]3(C)C2CC[C@@]2(C)[C@H](c4ccoc4)OC(=O)[C@H]4O[C@]423)C1(C)C (some centres undefined) ?
0.99

Which measured normalized growth value corresponds to CC(=O)N[C@@H](CC(=O)O)C(=O)N[C@@H](CCC(=O)O)C(=O)O (Ac-Asp-Glu-OH) ?
1.01

Which measured normalized growth value corresponds to CC(=O)C1CC[C@H]2C3CC[C@H]4C[C@H](O)CC[C@]4(C)C3CC[C@]12C (some centres undefined) ?
0.999

Which measured normalized growth value corresponds to `O=C(O)CCCCCCCC(=O)O` ?
1.02

* * *

Test: chemical genetic growth profiling, strain panel (AID 1159580);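 note: tested at 20 µM; growth read once vehicle control cultures reached saturation at 30 °C; 1 = growth at the plate median or of vehicle wells; lower values mean less growth of the strain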
Conditions: S. cerevisiae deletion strains, growth OD, locus YNL183C, strain NPR1, active compounds read low
The campaign covered roughly 5,500 compounds. About 2,000 (36%) were called active. Another 18% or so got no clear call; they are omitted. This is one part of the list.
normalized growth strictly under 0.9 means rule met; at 0.9 or over means rule not met.

Is the reported normalized growth for CC1C(c2ccccc2)N(C)C(c2ccccc2)CC1(O)c1ccc(F)cc1 (centres undefined) strictly below 0.9?
rule not met

Is the reported normalized growth for `OC[C@H]1O[C@@H](n2cnc3c(NCc4ccco4)ncnc32)[C@H](O)[C@@H]1O` strictly below 0.9?
rule not met

Is the reported normalized growth for CCN1C[C@@]2(COC)C3[C@@H](OC)[C@H]4[C@@H]1[C@]3(C(OC)C[C@H]2O)C1C[C@@]2(O)[C@H](OC(=O)c3ccccc3)C1[C@]4(OC(C)=O)[C@@H](O)[C@@H]2OC (some centres undefined) strictly below 0.9?
rule not met

Is the reported normalized growth for `NCCCCNCCCN` strictly below 0.9?
rule not met

Is the reported normalized growth for O=C(Nc1ccccc1)OCC(CN1CCCCC1)OC(=O)Nc1ccccc1 (centres undefined) strictly below 0.9?
rule not met

Is the reported normalized growth for `CC(O)(P(=O)(O)O)P(=O)(O)O` strictly below 0.9?
rule not met

Is the reported normalized growth for `Fc1ccc([C@@H]2CCNC[C@H]2COc2ccc3c(c2)OCO3)cc1` strictly below 0.9?
rule not met

Is the reported normalized growth for `O=c1oc2ccccc2cc1[N+](=O)[O-]` strictly below 0.9?
rule met

Is the reported normalized growth for C[C@@H]1CC2C3CCC4=CC(=O)C=C[C@]4(C)[C@@]3(F)[C@@H](O)C[C@]2(C)[C@@]1(O)C(=O)CO (some centres undefined) strictly below 0.9?
rule not met

Is the reported normalized growth for COc1ccc2c(c1)OCC(Cc1ccc(OC)c(OC(C)=O)c1)C2=O (centres undefined) strictly below 0.9?
rule not met

Is the reported normalized growth for `Clc1ccc(Oc2ccnc3cc(Cl)ccc23)cc1` strictly below 0.9?
rule met

Is the reported normalized growth for CC1[C@H](C)OC(=O)CC(O)CC(O)CC(O)CCC(O)C(O)C[C@]2(O)CC(O)C(C(=O)O)C(CC(OC3O[C@H](C)[C@@H](O)[C@H](N)[C@@H]3O)/C=C/C=C/C=C/C=C/CC/C=C/C=C/[C@H](C)[C@H]1O)O2 (some centres undefined) strictly below 0.9?
rule met

Is the reported normalized growth for `N#Cc1ccc(Oc2sccc2[N+](=O)[O-])cc1` strictly below 0.9?
rule met

Is the reported normalized growth for C[C@@H]1CC[C@H]2C(C)(C)C3CC12CC[C@@]3(C)O (some centres undefined) strictly below 0.9?
rule not met

Is the reported normalized growth for C[C@]12C=CC(=O)C=C1CCC1C2[C@@H](O)C[C@@]2(C)C1CC[C@]2(O)C(=O)CO (some centres undefined) strictly below 0.9?
rule not met

Is the reported normalized growth for CC1C/C=C/C=C/C=C/C=C/C(O[C@@H]2O[C@H](C)[C@@H](O)[C@H](N)[C@@H]2O)CC2OC(O)(CC(O)CC3OC3/C=C/C(=O)O1)CC(O)C2C(=O)O (some centres undefined) strictly below 0.9?
rule not met

Is the reported normalized growth for `Cc1nnc(NS(=O)(=O)c2ccc(N)cc2)s1` strictly below 0.9?
rule not met

Is the reported normalized growth for `Cc1ccc(C(=O)c2ccc(CC(=O)O)n2C)cc1` strictly below 0.9?
rule not met

Is the reported normalized growth for Clc1ccc(C(Cn2ccnc2)OCc2ccsc2Cl)c(Cl)c1 (centres undefined) strictly below 0.9?
rule met

Is the reported normalized growth for CC(=O)OCC(=O)[C@@]1(O)CCC2C3CCC4=CC(=O)C=CC4(C)C3[C@@H](O)C[C@@]21C (some centres undefined) strictly below 0.9?
rule not met

Is the reported normalized growth for NC(=O)NC1NC(=O)NC1=O (centres undefined) strictly below 0.9?
rule not met

Is the reported normalized growth for `NC(=O)CC[C@H](N)C(=O)O` strictly below 0.9?
rule not met

Is the reported normalized growth for `COC(=O)[C@H](c1ccccc1Cl)N1CCc2sccc2C1` strictly below 0.9?
rule not met

Is the reported normalized growth for `CNCC[C@H](Oc1cccc2ccccc12)c1cccs1` strictly below 0.9?
rule not met

Is the reported normalized growth for `C/C(=N/NC(=S)NCC(C)(C)C)c1cc(F)cc(Cl)c1O` strictly below 0.9?
rule not met

Is the reported normalized growth for CC1OC(O[C@H]2/C=C/C=C/C=C/C=C/C=C/C=C/C=C/[C@H](C)[C@@H](O)[C@@H](C)[C@H](C)OC(=O)CC(O)CC(O)CCC(O)C(O)CC(O)C[C@]3(O)C[C@H](O)C(C(=O)O)C(C2)O3)C(O)[C@H](N)C1O (some centres undefined) strictly below 0.9?
rule not met

Is the reported normalized growth for COc1ccnc(CS(=O)c2nc3ccc(OC(F)F)cc3[nH]2)c1OC (centres undefined) strictly below 0.9?
rule met

Is the reported normalized growth for CN[C@@H]1C(OC2[C@H](O[C@H]3[C@H](O)[C@@H](O)[C@H](N=C(N)N)[C@@H](O)[C@@H]3N=C(N)N)OC(C)[C@]2(O)CO)OC(CO)C(O)C1O (some centres undefined) strictly below 0.9?
rule not met

Is the reported normalized growth for `NCCCCCC(=O)O` strictly below 0.9?
rule not met

Is the reported normalized growth for `Cc1cc(CC(=O)O)n(C)c1C(=O)c1ccc(Cl)cc1` strictly below 0.9?
rule not met

Is the reported normalized growth for COC(=O)[C@@H]1OC(=O)C2OC23[C@@]1(C)CCC1[C@]2(C)C(C[C@@H](O)[C@]13C)C(C)(C)[C@H](OC(C)=O)C[C@@H]2OC(C)=O (some centres undefined) strictly below 0.9?
rule not met

Is the reported normalized growth for COc1cc2nc(N3CCN(C(=O)C4COc5ccccc5O4)CC3)nc(N)c2cc1OC (centres undefined) strictly below 0.9?
rule not met

Is the reported normalized growth for COc1ccc2c(c1)OCC(Cc1ccc(O)c(OC)c1)C2=O (centres undefined) strictly below 0.9?
rule not met

Is the reported normalized growth for `COC(=O)[C@@H]1C[C@H](OC(C)=O)C(=O)[C@H]2[C@@]1(C)CC[C@H]1C(=O)O[C@H](c3ccoc3)C[C@]21C` strictly below 0.9?
rule not met

Is the reported normalized growth for CC(C)=CC1C(C(=O)OCc2cccc(Oc3ccccc3)c2)C1(C)C (centres undefined) strictly below 0.9?
rule not met
